The values you see were collected from patent US20210330611A1.

# Lookup of reported Fibrin % cell toxicity keyed by entry
- Tested on: primary rat microglia
- TEST_DESCRIPTION: Cell toxicity (dead cells, size <150 μm2) in coated fibrin (cFib) assay;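 also: share of dead cells sized under 150 µm2 at 10 µM in fibrin-stimulated microglia HTS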
- CONDITIONS_USED: primary microglia HTS, fibrin assay, dead cells (size <150 μm2)
Give the value, in units of %, as a plain number.

CC(=O)N[C@@H](CC(C)C)C(=O)O [Acetyl-l-leucine] ... 5
Cc1ccc(/N=C/N(C)/C=N/c2ccc(C)cc2C)c(C)c1 [Amitraz] ... 0

[Q] Please report the recorded Fibrin % cell toxicity for NC(Cc1ccc(Cl)cc1)C(=O)O (racemic) [(±)-p-chlorophenylalanine, Fenclonine] .
[A] 1

[Q] Please answer likewise for COc1ccc2c(c1)c(CC(=O)OCC(=O)O)c(C)n2C(=O)c1ccc(Cl)cc1 [Acemetacin]
[A] 1

[Q] Please answer likewise for CC(O)(CC(=O)O)CC(=O)O [3-Hydroxy-3-Methyl-Glutaric Acid]
[A] 0

[Q] Please answer likewise for CC(=O)Nc1cc([As](=O)(O)O)ccc1O [Acetarsol]
[A] 0

====

# Lookup of reported LPS % cell toxicity keyed by entry
- Tested on: primary rat microglia
- CONDITIONS_USED: rat
Give the value, in units of %, as a plain number.

Observe how each entry below is paired with its result.
CCCCCCCCCCCCCCCC[n+]1ccccc1 [Cetylpyridinium Bromide] ... 39
O=C(O[C@H]1CN2CCC1CC2)N1CCc2ccccc2[C@@H]1c1ccccc1 [Solifenacin Succinate] ... 0
CCOC(=O)COc1ccc2c(=O)cc(-c3ccccc3)oc2c1 [Efloxate] ... 0
CC(=O)OC/C=C(C)/C=C/C=C(C)/C=C/C1=C(C)CCCC1(C)C [Retinyl Acetate] ... 0

With those in mind, consider the next compound.
[Q] Write down the reported LPS % cell toxicity of CC(=O)OCC(=O)NCCCOc1cccc(CN2CCCCC2)c1 [Roxatidine acetate] , test system: primary rat microglia.
[A] 0

====

- Test system: primary rat microglia
- TEST_DESCRIPTION: Cell toxicity (dead cells, size <150 μm2) in LPS assay
- CONDITIONS_USED: primary microglia HTS, 10 μM, LPS assay, cell size <150 μm^2 as marker of toxicity
# Lookup of reported LPS % cell toxicity keyed by entry
Give the value, in units of %, as a plain number.

N#Cc1ccc2[nH]cc(CCCCN3CCN(c4ccc5oc(C(N)=O)cc5c4)CC3)c2c1 [Vilazodone] ... 1
CC(=O)NS(=O)(=O)c1ccc(N)cc1 [Sulfacetamide] ... 0
C[C@H](CCC(=O)O)[C@H]1CC[C@H]2[C@@H]3[C@@H](O)C[C@@H]4C[C@H](O)CC[C@]4(C)[C@H]3CC[C@]12C [Ursodiol] ... 0

[Q] Write down the reported LPS % cell toxicity of CCCCC/C=C\CCC(=O)N[C@H]1[C@H](Oc2c3cc4cc2Oc2ccc(cc2Cl)[C@@H](O[C@@H]2O[C@H](CO)[C@@H](O)[C@H](O)[C@H]2NC(C)=O)[C@@H]2NC(=O)[C@H](NC(=O)[C@@H]4NC(=O)[C@H]4NC(=O)[C@@H](Cc5ccc(c(Cl)c5)O3)NC(=O)[C@H](N)c3ccc(O)c(c3)Oc3cc(O)cc4c3)c3ccc(O)c(c3)-c3c(O[C@H]4O[C@H](CO)[C@@H](O)[C@H](O)[C@@H]4O)cc(O)cc3[C@@H](C(=O)O)NC2=O)O[C@H](CO)[C@@H](O)[C@@H]1O [Teicoplanin [a(2-1) Shown]] , test system: primary rat microglia.
[A] 0

[Q] Please answer likewise for CCCCNc1ccc(C(=O)OCCN(C)C)cc1 [Tetracaine]
[A] 1

[Q] Please answer likewise for Cn1cnc2c1c(=O)[nH]c(=O)n2C [Theobromine]
[A] 1

[Q] Please answer likewise for CS(=O)(=O)c1ccc([C@@H](O)[C@@H](CO)NC(=O)C(Cl)Cl)cc1 [Thiamphenicol]
[A] 0
